Molecular target: human DcpS enzyme (hDcpS) (Homo sapiens)
Construct: made in house
Sequence (Q96C86 1-337): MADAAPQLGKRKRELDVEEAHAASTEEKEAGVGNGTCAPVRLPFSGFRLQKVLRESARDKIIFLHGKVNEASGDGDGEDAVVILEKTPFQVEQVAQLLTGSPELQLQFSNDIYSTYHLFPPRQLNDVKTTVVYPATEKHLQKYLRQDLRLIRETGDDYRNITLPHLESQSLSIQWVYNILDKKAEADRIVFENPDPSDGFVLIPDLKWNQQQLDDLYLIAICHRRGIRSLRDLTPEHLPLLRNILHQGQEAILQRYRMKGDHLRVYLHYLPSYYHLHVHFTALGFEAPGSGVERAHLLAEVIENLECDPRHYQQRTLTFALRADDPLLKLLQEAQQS
Test: Susceptibility of cap analogs to degradation by DcpS enzyme (RP-HPLC)
Format: biochemical
Details: cap analog 20 μM, hDcpS 100 nM, RP-HPLC
experimental.endpoint: DcpS susceptibility

Answered cases to consult:
C[n+]1cn([C@@H]2O[C@H](COP(=O)(O)OP(=O)([O-])SC[C@H]3O[C@@H](n4cnc5c(=O)[nH]c(N)nc54)C(O)C3O)C(O)C2O)c2nc(N)nc(O)c21 (stereo in doubt) : hydrolyzable
C[n+]1cn([C@@H]2O[C@H](CSP(=O)([O-])OP(=O)(O)O)C(O)[C@@H]2O)c2nc(N)nc(O)c21 (some centres unmarked) : resistant/inhibitor
C[n+]1cn([C@@H]2O[C@H](CSP(=O)([O-])OP(=O)(O)CP(=O)(O)OC[C@H]3O[C@@H](n4cnc5c(=O)[nH]c(N)nc54)C(O)C3O)C(O)C2O)c2nc(N)nc(O)c21 (some centres unmarked) : resistant/inhibitor
Nc1nc2c(ncn2[C@@H]2O[C@H](COP(=O)(O)OP(=O)(O)OP(=O)(O)SC[C@H]3O[C@@H](n4cnc5c(=O)[nH]c(N)nc54)[C@H](O)[C@@H]3O)[C@@H](O)[C@H]2O)c(=O)[nH]1 : hydrolyzable

Next:
Task: Give its DcpS susceptibility value. Item: C[n+]1cn([C@@H]2O[C@H](CSP(=O)(O)OP(=O)([S-])OP(=O)(O)OC[C@H]3O[C@@H](n4cnc5c(=O)[nH]c(N)nc54)C(O)C3O)C(O)C2O)c2nc(N)nc(O)c21 (some centres unmarked) [compound 31]
Output: resistant/inhibitor

* * *

tested on: rabbit reticulocyte lysate; experiment: Translational efficiency of capped Renilla luciferase mRNAs in rabbit reticulocyte lysate; assay type: biochemical; details: Renilla luciferase mRNA capped with the analog; normalized to m^7GpppG-capped mRNA; biological triplicates
experimental.endpoint: relative translation efficiency
Reply briefly: the number, and no unit.

Task: Give its relative translation efficiency value. Item: "Cn1c[n+]([C@@H]2O[C@H](COP(=O)(O)OP(=O)([O-])OP(=O)(O)OC[C@H]3O[C@@H](n4cnc5c(=O)[nH]c(N)nc54)[C@H](O)[C@@H]3O)[C@@H](O)[C@H]2O)c2nc(N)[nH]c(=O)c21"
Output: 1.00

Task: Give its relative translation efficiency value. Item: "CO[C@@H]1[C@H](O)[C@@H](COP(=O)(O)OP(=O)([O-])OP(=O)(O)OC[C@H]2O[C@@H](n3cnc4c(=O)[nH]c(N)nc43)[C@H](O)[C@@H]2O)O[C@H]1n1c[n+](C)c2c(O)nc(N)nc21"
Output: 1.56

Task: Give its relative translation efficiency value. Item: COC1C(O)[C@@H](COP(=O)(O)OP(=O)(O)OP(=O)([O-])SC[C@H]2O[C@@H](n3cnc4c(=O)[nH]c(N)nc43)C(O)C2O)O[C@H]1n1c[n+](C)c2c(O)nc(N)nc21 (stereo partly drawn)
Output: 2.23

Task: Give its relative translation efficiency value. Item: COC1C(O)[C@@H](CSP(=O)([O-])OP(=O)(O)OP(=O)(O)OC[C@H]2O[C@@H](n3cnc4c(=O)[nH]c(N)nc43)C(O)C2O)O[C@H]1n1c[n+](C)c2c(O)nc(N)nc21 (stereo partly drawn)
Output: 1.73

Task: Give its relative translation efficiency value. Item: COC1C(O)C(COP(=O)(O)OP(=O)(S)OP(=O)(O)OCC2OC(n3cnc4c(=O)[nH]c(N)nc43)C(O)C2O)OC1n1c[n+](C)c2c(=O)[nH]c(N)nc21 (stereo not drawn) [m2^7,2′-oGppspG D2]
Output: 3.45

Task: Give its relative translation efficiency value. Item: "Nc1nc2c(ncn2[C@@H]2O[C@H](COP(=O)(O)OP(=O)(O)OP(=O)(O)OC[C@H]3O[C@@H](n4cnc5c(=O)[nH]c(N)nc54)[C@H](O)[C@@H]3O)[C@@H](O)[C@H]2O)c(=O)[nH]1"
Output: 0.05

* * *

Kindly supply the reported pIC50 values for the records listed here.
Scale explanation: pIC50 corresponds to minus log10 of a concentration expressed in moles per litre.

Task: Observed pIC50 on UniProt Q96C86 for C[n+]1cn([C@@H]2O[C@H](CSP(=O)(O)OP(=O)([S-])OP(=O)(O)SC[C@H]3O[C@@H](n4cnc5c(=O)[nH]c(N)nc54)C(O)C3O)C(O)C2O)c2nc(N)nc(O)c21 (single isomer, unassigned) [compound 33] , please.
Output: 6.59

Task: Observed pIC50 on UniProt Q96C86 for C[n+]1cn([C@@H]2O[C@H](CSP(=O)(O)OP(=O)([S-])OP(=O)(O)OC[C@H]3O[C@@H](n4cnc5c(=O)[nH]c(N)nc54)C(O)C3O)C(O)C2O)c2nc(N)nc(O)c21 (stereo partly shown) [compound 31] , please.
Output: 6.77

* * *

target: Dcp1/2 decapping enzyme (SpDcp1/2) (Schizosaccharomyces pombe, UniProt O13828); construct: made in house; experiment: Susceptibility of short capped RNAs to degradation with the Dcp1/2 enzyme; format: biochemical; settings: RNA capped with the analog; 3.5 nM Dcp1/2, time point 15 min, normalized to 0′ time
Sequence (O13828 1-243 limits assumed): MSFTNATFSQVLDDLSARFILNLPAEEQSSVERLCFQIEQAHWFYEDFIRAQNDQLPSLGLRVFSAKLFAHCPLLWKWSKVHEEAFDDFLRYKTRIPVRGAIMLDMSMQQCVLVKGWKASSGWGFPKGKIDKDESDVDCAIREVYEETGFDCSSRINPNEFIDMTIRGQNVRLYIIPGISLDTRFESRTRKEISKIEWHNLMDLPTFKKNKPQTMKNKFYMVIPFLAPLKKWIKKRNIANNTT
Sequence (Q9P805 whole entry partner): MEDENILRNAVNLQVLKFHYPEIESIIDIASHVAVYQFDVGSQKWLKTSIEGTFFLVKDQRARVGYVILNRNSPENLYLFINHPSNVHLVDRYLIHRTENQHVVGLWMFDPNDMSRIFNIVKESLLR
experimental.endpoint: Dcp1/2 susceptibility
Reply briefly: the number, and no unit.

Task: Give its Dcp1/2 susceptibility value. Item: "CO[C@@H]1[C@H](O)[C@@H](COP(=O)(O)OP(=O)([O-])OP(=O)(O)OC[C@H]2O[C@@H](n3cnc4c(=O)[nH]c(N)nc43)[C@H](O)[C@@H]2O)O[C@H]1n1c[n+](C)c2c(O)nc(N)nc21"
Output: 0.52

Task: Give its Dcp1/2 susceptibility value. Item: COC1C(O)C(COP(=O)(O)OP(=O)(S)OP(=O)(O)OCC2OC(n3cnc4c(=O)[nH]c(N)nc43)C(O)C2O)OC1n1c[n+](C)c2c(=O)[nH]c(N)nc21 (stereo not drawn) [m2^7,2′-oGppspG D2]
Output: 0.43

Task: Give its Dcp1/2 susceptibility value. Item: "Nc1nc2c(ncn2[C@@H]2O[C@H](COP(=O)(O)OP(=O)(O)OP(=O)(O)OC[C@H]3O[C@@H](n4cnc5c(=O)[nH]c(N)nc54)[C@H](O)[C@@H]3O)[C@@H](O)[C@H]2O)c(=O)[nH]1"
Output: 0

Task: Give its Dcp1/2 susceptibility value. Item: COC1C(O)[C@@H](CSP(=O)([O-])OP(=O)(O)OP(=O)(O)OC[C@H]2O[C@@H](n3cnc4c(=O)[nH]c(N)nc43)C(O)C2O)O[C@H]1n1c[n+](C)c2c(O)nc(N)nc21 (stereo partly drawn)
Output: 0.07

Task: Give its Dcp1/2 susceptibility value. Item: COC1C(O)[C@@H](COP(=O)(O)OP(=O)(O)OP(=O)([O-])SC[C@H]2O[C@@H](n3cnc4c(=O)[nH]c(N)nc43)C(O)C2O)O[C@H]1n1c[n+](C)c2c(O)nc(N)nc21 (stereo partly drawn)
Output: 0.52

Task: Give its Dcp1/2 susceptibility value. Item: "Cn1c[n+]([C@@H]2O[C@H](COP(=O)(O)OP(=O)([O-])OP(=O)(O)OC[C@H]3O[C@@H](n4cnc5c(=O)[nH]c(N)nc54)[C@H](O)[C@@H]3O)[C@@H](O)[C@H]2O)c2nc(N)[nH]c(=O)c21"
Output: 0.69

* * *

biological target: human DcpS enzyme (hDcpS) (Homo sapiens, UniProt Q96C86); construct: made in house; assay: Susceptibility of cap analogs to degradation by DcpS enzyme (RP-HPLC); type: biochemical; details: tested as substrates of hDcpS, RP HPLC
experimental.endpoint: hydrolysis by hDcpS

COC1C(O)[C@@H](COP(=O)(O)OP(=O)(O)OP(=O)([O-])SC[C@H]2O[C@@H](n3cnc4c(=O)[nH]c(N)nc43)C(O)C2O)O[C@H]1n1c[n+](C)c2c(O)nc(N)nc21 (some centres unmarked) [compound 38] : hydrolyzed
C[n+]1cn([C@@H]2O[C@H](COP(=O)(O)OP(=O)([O-])SC[C@H]3O[C@@H](n4cnc5c(=O)[nH]c(N)nc54)C(O)C3O)C(O)C2O)c2nc(N)nc(O)c21 (stereo in doubt) [compound 21] : hydrolyzed
C[n+]1cn([C@@H]2O[C@H](COP(=O)(O)OP(=O)([S-])OP(=O)(O)SC[C@H]3O[C@@H](n4cnc5c(=O)[nH]c(N)nc54)C(O)C3O)C(O)C2O)c2nc(N)nc(O)c21 (some centres unmarked) [compound 35] : hydrolyzed
